Entry source: patent US8592421B2

# ASSAY TEXT: Chronic toxicity of suppositories: indexes of peripheral blood
# Format: in vivo, rats
# STATED CONDITIONS: male rats, suppositories rectally, 500 mg/kg, 1 month; control 17.4 ± 1.3
MEASUREMENT LABEL: Leukocyte
Note: a bare number is incomplete; add the unit.

{"columns": ["COMPOUND STRUCTURE", "MEASUREMENT LABEL", "RESULT VALUE"],
 "data": [
  ["Nc1cccc2c(=O)[nH][nH]c(=O)c12.[Na]", "Leukocyte", "17.0 ± 1.4 thousand/mm^3"]
]}

Query: Tell me Leukocyte reported for `O=c1[nH]n([C@@H]2O[C@H](CO)[C@@H](O)[C@H]2O)c(=O)c2nc(O)cnc12.[Na].[Na]`
Reply: 16.4 ± 1.1 thousand/mm^3

Query: Report Leukocyte, nothing else, for this molecule: `O=c1[nH][nH]c(=O)c2c(Br)ncnc12.[K]`
Reply: 17.1 ± 0.9 thousand/mm^3

Query: Please report the measured Leukocyte for `O=C([O-])c1ncnc2c(=O)n([C@@H]3O[C@H](CO)[C@@H](O)[C@H]3O)[nH]c(=O)c12.[Na+]`
Reply: 16.9 ± 1.0 thousand/mm^3

###

# Test system: plasma hemostasis
# ASSAY TEXT: Autocoagulation test (coagulating activity A) after intravenous administration
# Format: in vivo, rabbit
# STATED CONDITIONS: 15.0 mg/kg intravenously, after 30 minutes; control 85.6
Listed here: items and their measured coagulating activity A (autocoagulation test).

Known coagulating activity A (autocoagulation test) results, listed for orientation:
{"columns": ["COMPOUND", "RESULT VALUE"],
 "data": [
  ["O=c1[nH][nH]c(=O)c2c(Br)ncnc12.[K] [Compound 37]", "102.8%"],
  ["Nc1cnc2c(=O)n([C@@H]3O[C@H](CO)[C@@H](O)[C@H]3O)[nH]c(=O)c2n1.[Na] [Compound 21]", "101.3%"],
  ["Nc1ccnc2c(=O)n([C@@H]3O[C@H](CO)[C@@H](O)[C@H]3O)[nH]c(=O)c12 [Compound 2]", "100.0%"]
]}

Note: attention shifts to another entry.
Query: Please supply the value of reported coagulating activity A (autocoagulation test) for the item Nc1cccc2c(=O)[nH][nH]c(=O)c12.[Na] [Compound 15]
Reply: 103.0%

###

# ASSAY TEXT: Chronic toxicity of suppositories: indexes of peripheral blood
# Type: in vivo, rats
# STATED CONDITIONS: male rats, suppositories rectally, 50 mg/kg, 2 months; control 6.1 ± 0.1
MEASUREMENT LABEL: Erythrocytes
Please provide the amount together with its unit, number first.

Solved cases (3 shown):
{"columns": ["COMPOUND STRUCTURE", "Erythrocytes"],
 "data": [
  ["O=c1[nH][nH]c(=O)c2c(Br)ncnc12.[K]", "6.2 ± 0.1 mln/mm^3"],
  ["O=c1[nH]n([C@@H]2O[C@H](CO)[C@@H](O)[C@H]2O)c(=O)c2nc(O)cnc12.[Na].[Na]", "6.0 ± 0.2 mln/mm^3"],
  ["Nc1cccc2c(=O)[nH][nH]c(=O)c12.[Na]", "6.0 ± 0.1 mln/mm^3"]
]}

Now let's try a different one.
Query: Supply recorded Erythrocytes for `O=C([O-])c1ncnc2c(=O)n([C@@H]3O[C@H](CO)[C@@H](O)[C@H]3O)[nH]c(=O)c12.[Na+]` here.
Reply: 6.1 ± 0.2 mln/mm^3

###

Below, each entry is listed with its recorded thrombin time, T2.
# Test system: plasma hemostasis
# ASSAY TEXT: Thrombin time after intravenous administration
# Type: in vivo, rabbit
# STATED CONDITIONS: 15.0 mg/kg intravenously, after 30 minutes; control 15.8
Marks after values point to notes of the source that are not given here.

{"columns": ["COMPOUND STRUCTURE", "EXPERIMENTAL TARGET", "RESULT VALUE"],
 "data": [
  ["Nc1ccnc2c(=O)n([C@@H]3O[C@H](CO)[C@@H](O)[C@H]3O)[nH]c(=O)c12", "plasma hemostasis", "17.0* s"],
  ["Nc1cccc2c(=O)[nH][nH]c(=O)c12.[Na]", "plasma hemostasis", "18.5* s"],
  ["O=c1[nH][nH]c(=O)c2c(Br)ncnc12.[K]", "plasma hemostasis", "18.2* s"]
]}

Pending compound:
Query: Query thrombin time, T2 for `Nc1cnc2c(=O)n([C@@H]3O[C@H](CO)[C@@H](O)[C@H]3O)[nH]c(=O)c2n1.[Na]`
Reply: 17.7* s

###

# ASSAY TEXT: Chronic toxicity of suppositories: indexes of peripheral blood
# Format: in vivo, rats
# STATED CONDITIONS: male rats, suppositories rectally, 500 mg/kg, 2 months; control 45.9 ± 1.8
MEASUREMENT LABEL: Haematocrite (%)
// note: answer is a bare numeric in %

{"columns": ["COMPOUND STRUCTURE", "MEASUREMENT LABEL", "DISPLAY UNIT", "RESULT VALUE"],
 "data": [
  ["O=C([O-])c1ncnc2c(=O)n([C@@H]3O[C@H](CO)[C@@H](O)[C@H]3O)[nH]c(=O)c12.[Na+]", "Haematocrite", "%", 53.1]
]}

Query: Give the reported value of Haematocrite for this record: `O=c1[nH]n([C@@H]2O[C@H](CO)[C@@H](O)[C@H]2O)c(=O)c2nc(O)cnc12.[Na].[Na]`
Reply: 49.4

Query: Give the reported Haematocrite for this molecule. `O=c1[nH][nH]c(=O)c2c(Br)ncnc12.[K]`
Reply: 52.5

Query: Read the entry `Nc1cccc2c(=O)[nH][nH]c(=O)c12.[Na]` and write its reported Haematocrite.
Reply: 53.9

###

prothrombin time, T by entry:
# System: plasma hemostasis
# ASSAY TEXT: Prothrombin time after intravenous administration
# Format: in vivo, rabbit
# STATED CONDITIONS: 60.0 mg/kg intravenously, after 60 minutes; control 12.0 ± 0.1
Quick note: give the figure in s, leave out the unit.

Known prothrombin time, T results, listed for orientation:
{"columns": ["COMPOUND", "DISPLAY UNIT", "RESULT VALUE"],
 "data": [
  ["Nc1cccc2c(=O)[nH][nH]c(=O)c12.[Na] [Compound 15]", "s", 12.0],
  ["O=c1[nH][nH]c(=O)c2c(Br)ncnc12.[K] [Compound 37]", "s", 12.1],
  ["Nc1cnc2c(=O)n([C@@H]3O[C@H](CO)[C@@H](O)[C@H]3O)[nH]c(=O)c2n1.[Na] [Compound 21]", "s", 12.1]
]}

Next compound, prothrombin time, T to be filled in.
Query: System plasma hemostasis. Read-out prothrombin time, T. Item Nc1ccnc2c(=O)n([C@@H]3O[C@H](CO)[C@@H](O)[C@H]3O)[nH]c(=O)c12 [Compound 2] . Report value.
Reply: 12.1

###

The following compounds are shown together with reported Haematocrite values.
# ASSAY TEXT: Chronic toxicity of suppositories: indexes of peripheral blood
# Format: in vivo, rats
# STATED CONDITIONS: male rats, suppositories rectally, 500 mg/kg, 1 month; control 45.9 ± 1.7
Express the result in % but write the number alone.

{"columns": ["COMPOUND STRUCTURE", "MEASUREMENT LABEL", "RESULT VALUE"],
 "data": [
  ["O=c1[nH]n([C@@H]2O[C@H](CO)[C@@H](O)[C@H]2O)c(=O)c2nc(O)cnc12.[Na].[Na]", "Haematocrite", 47.9],
  ["O=C([O-])c1ncnc2c(=O)n([C@@H]3O[C@H](CO)[C@@H](O)[C@H]3O)[nH]c(=O)c12.[Na+]", "Haematocrite", 48.1],
  ["Nc1cccc2c(=O)[nH][nH]c(=O)c12.[Na]", "Haematocrite", 47.6]
]}

Please look at the following compound next.
Query: Supply recorded Haematocrite for `O=c1[nH][nH]c(=O)c2c(Br)ncnc12.[K]` here.
Reply: 47.9

###

# Test system: thrombocytes
# ASSAY TEXT: ADP-induced aggregation of thrombocytes in vitro (Born method, plasma enriched with thrombocytes)
# Assay type: cell-based, rabbit
# STATED CONDITIONS: 10^−3 M, 3-minute incubation, ADP 10^−5 M; control 60.8 ± 3.4
Quick reference: MA - fall of optical density of plasma, % to the standard of the listed items.
# output: bare number, implied unit %

Worked cases, MA - fall of optical density of plasma, % to the standard given:
{"columns": ["COMPOUND STRUCTURE", "EXPERIMENTAL TARGET", "RESULT VALUE"],
 "data": [
  ["Nc1cccc2c(=O)n([C@@H]3O[C@H](CO)[C@@H](O)[C@H]3O)[nH]c(=O)c12.[Na]", "thrombocytes", 46.2],
  ["O=c1[nH]n([C@@H]2O[C@H](CO)[C@@H](O)[C@H]2O)c(=O)c2ccccc12.[Na]", "thrombocytes", 47.3],
  ["O=c1[nH][nH]c(=O)c2ncccc12.[Li]", "thrombocytes", 50.0],
  ["Nc1cnc2c(=O)[nH][nH]c(=O)c2n1.[Na]", "thrombocytes", 49.7],
  ["Nc1ncnc2c(=O)n([C@@H]3O[C@H](CO)[C@@H](O)[C@H]3O)[nH]c(=O)c12.[Na]", "thrombocytes", 44.9]
]}

Query: # return MA - fall of optical density of plasma, % to the standard of `O=c1[nH][nH]c(=O)c2c(Br)ncnc12.[K]` (system: thrombocytes)
Reply: 46.9

Query: Give MA - fall of optical density of plasma, % to the standard; test system thrombocytes; compound `Nc1cnc2c(=O)n([C@@H]3O[C@H](CO)[C@@H](O)[C@H]3O)[nH]c(=O)c2n1.[Na]`
Reply: 47.1

Query: Provide the reported MA - fall of optical density of plasma, % to the standard (system: thrombocytes) for `Nc1ccnc2c(=O)n([C@@H]3O[C@H](CO)[C@@H](O)[C@H]3O)[nH]c(=O)c12`
Reply: 51.4

Query: Give MA - fall of optical density of plasma, % to the standard only, for `O=c1[nH][nH]c(=O)c2nccnc12.[Li]` , using thrombocytes data.
Reply: 48.2

Query: Fill: MA - fall of optical density of plasma, % to the standard (thrombocytes) for this compound `Nc1cccc2c(=O)[nH][nH]c(=O)c12.[Na]`
Reply: 44.8

Query: Report MA - fall of optical density of plasma, % to the standard on thrombocytes for this entry: `Nc1ncc2c(=O)[nH][nH]c(=O)c2n1`
Reply: 45.8

Query: Check thrombocytes data and give MA - fall of optical density of plasma, % to the standard for `O=c1[nH]n([C@@H]2O[C@H](CO)[C@@H](O)[C@H]2O)c(=O)c2nccc(O)c12.[Na].[Na]` .
Reply: 49.2
